studyTarget: FAP (Homo sapiens (Human), UniProt Q12884)
Sequence (Q12884 38-760): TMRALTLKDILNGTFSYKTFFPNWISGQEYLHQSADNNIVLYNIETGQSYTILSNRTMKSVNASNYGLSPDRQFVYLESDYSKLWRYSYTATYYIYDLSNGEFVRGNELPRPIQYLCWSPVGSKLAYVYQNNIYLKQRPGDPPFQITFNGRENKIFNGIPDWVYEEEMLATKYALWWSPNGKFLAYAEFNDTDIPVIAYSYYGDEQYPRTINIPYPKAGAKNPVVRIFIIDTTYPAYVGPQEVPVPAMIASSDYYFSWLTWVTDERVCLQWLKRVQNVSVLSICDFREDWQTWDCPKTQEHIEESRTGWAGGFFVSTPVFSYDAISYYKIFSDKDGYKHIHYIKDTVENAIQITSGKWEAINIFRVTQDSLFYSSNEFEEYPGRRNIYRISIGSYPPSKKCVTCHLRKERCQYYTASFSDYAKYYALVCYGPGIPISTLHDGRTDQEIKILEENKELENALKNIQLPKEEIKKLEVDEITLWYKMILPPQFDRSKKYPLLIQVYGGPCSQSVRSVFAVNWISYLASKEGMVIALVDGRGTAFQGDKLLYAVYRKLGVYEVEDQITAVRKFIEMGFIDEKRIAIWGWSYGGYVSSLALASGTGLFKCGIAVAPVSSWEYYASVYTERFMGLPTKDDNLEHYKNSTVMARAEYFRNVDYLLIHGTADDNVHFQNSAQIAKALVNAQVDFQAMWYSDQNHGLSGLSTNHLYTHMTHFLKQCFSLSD
protocolDetails: hFAP inhibition assay
Format: biochemical
experimentalConditions: hFAP […], Ala-Pro-AMC 20 μM; n = 1 or geometric mean n = 2-3
pIC50: −log10 of the molar value.

cpdSmiles | pIC50
Cc1noc(C)c1-c1ccc2nccc(C(=O)NCC(=O)N3CSC[C@H]3C#N)c2c1 | 8.62
CC1(CF)CCN(c2ccc3nccc(C(=O)NCC(=O)N4CSC[C@H]4C#N)c3c2)CC1 | 9.66
C[C@@H]1COC[C@@H](C)N1c1ccc2nccc(C(=O)NCC(=O)N3CSC[C@H]3C#N)c2c1 | 9.43
N#C[C@@H]1CSCN1C(=O)CNC(=O)c1ccnc2ccc(-c3cccnc3)cc12 | 9.49
N#C[C@@H]1CSCN1C(=O)CNC(=O)c1ccnc2ccc(-c3ccnc(F)c3)cc12 | 9.62
C[C@@H]1COC[C@H](C)N1c1cc2c(C(=O)NCC(=O)N3CSC[C@H]3C#N)ccnc2cc1Br | 9.30
N#C[C@@H]1CSCN1C(=O)CNC(=O)c1ccnc2ccc(N3CCCC4(CC4)C3)cc12 | 9.54
Cc1ccc(-c2ccc3nccc(C(=O)NCC(=O)N4CSC[C@H]4C#N)c3c2)cn1 | 9.54

---

protocolDetails: Kinetic solubility
experimentalConditions: kinetic from dmso stock, Solubility, kinetic solubility; n = 1 or average of n = 2-3
assayEndpoint: solubility (µM)

compound | operatorSymbol | quantitativeResult
N#C[C@@H]1CSCN1C(=O)CNC(=O)c1ccnc2ccc(N3C[C@@H]4CCC[C@@H]43)cc12 (mixture of isomers) | = | 100
N#C[C@@H]1CSCN1C(=O)CNC(=O)c1ccnc2ccc(-c3ccnc(F)c3)cc12 | = | 38
Cc1ncccc1-c1ccc2nccc(C(=O)NCC(=O)N3CSC[C@H]3C#N)c2c1 | = | 960
C[C@@H]1CCN(c2ccc3nccc(C(=O)NCC(=O)N4CSC[C@H]4C#N)c3c2)CCO1 | = | 670
CO[C@@H]1CN(c2ccc3nccc(C(=O)NCC(=O)N4CSC[C@H]4C#N)c3c2)[C@H]1C | > | 1000
N#C[C@@H]1CSCN1C(=O)CNC(=O)c1ccnc2ccc(N3CCCCC3=O)cc12 | = | 830
N#C[C@@H]1CSCN1C(=O)CNC(=O)c1ccnc2ccc(N3CC(F)C3)cc12 | = | 390
COc1ccc(-c2ccc3nccc(C(=O)NCC(=O)N4CSC[C@H]4C#N)c3c2)cn1 | = | 6

---

studyTarget: hFAP (M39-A757) (Homo sapiens (Human))
Sequence (Q12884 39-757): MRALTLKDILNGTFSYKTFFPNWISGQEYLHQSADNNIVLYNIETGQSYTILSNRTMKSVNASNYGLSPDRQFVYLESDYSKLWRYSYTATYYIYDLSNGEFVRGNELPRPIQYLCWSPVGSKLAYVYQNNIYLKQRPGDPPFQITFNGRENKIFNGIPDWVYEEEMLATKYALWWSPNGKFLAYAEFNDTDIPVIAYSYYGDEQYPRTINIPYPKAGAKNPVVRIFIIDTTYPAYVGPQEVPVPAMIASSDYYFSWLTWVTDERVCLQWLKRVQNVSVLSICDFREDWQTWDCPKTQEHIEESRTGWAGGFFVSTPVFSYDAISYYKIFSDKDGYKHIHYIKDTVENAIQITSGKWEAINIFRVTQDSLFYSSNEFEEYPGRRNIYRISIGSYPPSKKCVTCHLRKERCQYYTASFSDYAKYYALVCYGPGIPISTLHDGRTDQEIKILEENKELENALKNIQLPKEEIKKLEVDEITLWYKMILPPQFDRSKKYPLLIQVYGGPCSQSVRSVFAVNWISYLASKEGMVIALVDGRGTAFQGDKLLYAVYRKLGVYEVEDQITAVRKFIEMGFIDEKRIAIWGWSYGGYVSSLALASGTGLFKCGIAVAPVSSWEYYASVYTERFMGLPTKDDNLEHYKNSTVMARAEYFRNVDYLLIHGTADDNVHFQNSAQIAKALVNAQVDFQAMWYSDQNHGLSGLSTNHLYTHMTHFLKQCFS
protocolDetails: hFAP binding assay (surface plasmon resonance)
experimentalConditions: SPR, 20° C., single cycle kinetics
Measured hFAP Binding assay k(on) accompanies every entry in the list below.
assayEndpoint: hFAP Binding assay k(on) (M⁻¹ s⁻¹)

compound | studyTarget | assayEndpoint | valueUnit | quantitativeResult
N#C[C@@H]1CSCN1C(=O)CNC(=O)c1ccnc2ccc(N3CC(F)C3)cc12 [Example 21] | hFAP (M39-A757) (Homo sapiens (Human)) | hFAP Binding assay k(on) | M⁻¹ s⁻¹ | 3000000
N#C[C@@H]1CSCN1C(=O)CNC(=O)c1ccnc2ccc(-c3ccnc(F)c3)cc12 [Example 124] | hFAP (M39-A757) (Homo sapiens (Human)) | hFAP Binding assay k(on) | M⁻¹ s⁻¹ | 3000000
CC[C@H]1COCCN1c1ccc2nccc(C(=O)NCC(=O)N3CSC[C@H]3C#N)c2c1 [Example 106] | hFAP (M39-A757) (Homo sapiens (Human)) | hFAP Binding assay k(on) | M⁻¹ s⁻¹ | 1800000
Cn1nccc1-c1ccc2nccc(C(=O)NCC(=O)N3CSC[C@H]3C#N)c2c1 [Example 174] | hFAP (M39-A757) (Homo sapiens (Human)) | hFAP Binding assay k(on) | M⁻¹ s⁻¹ | 1900000
COc1ccc(-c2ccc3nccc(C(=O)NCC(=O)N4CSC[C@H]4C#N)c3c2)cn1 [Example 178] | hFAP (M39-A757) (Homo sapiens (Human)) | hFAP Binding assay k(on) | M⁻¹ s⁻¹ | 3100000
N#C[C@@H]1CSCN1C(=O)CNC(=O)c1ccnc2ccc(N3CC(CC(F)F)C3)cc12 [Example 144] | hFAP (M39-A757) (Homo sapiens (Human)) | hFAP Binding assay k(on) | M⁻¹ s⁻¹ | 9100000
C[C@H]1CCCN(c2ccc3nccc(C(=O)NCC(=O)N4CSC[C@H]4C#N)c3c2)C1=O (single isomer, unassigned) [Example 203] | hFAP (M39-A757) (Homo sapiens (Human)) | hFAP Binding assay k(on) | M⁻¹ s⁻¹ | 440000
Cc1nn(C2CCOCC2)c(C)c1-c1ccc2nccc(C(=O)NCC(=O)N3CSC[C@H]3C#N)c2c1 [Example 172] | hFAP (M39-A757) (Homo sapiens (Human)) | hFAP Binding assay k(on) | M⁻¹ s⁻¹ | 2400000
N#C[C@@H]1CSCN1C(=O)CNC(=O)c1ccnc2ccc(N3CCOCC34CCC4)cc12 [Example 104] | hFAP (M39-A757) (Homo sapiens (Human)) | hFAP Binding assay k(on) | M⁻¹ s⁻¹ | 3000000
C[C@H]1COCCN1c1ccc2nccc(C(=O)NCC(=O)N3CSC[C@H]3C#N)c2c1 [Example 102] | hFAP (M39-A757) (Homo sapiens (Human)) | hFAP Binding assay k(on) | M⁻¹ s⁻¹ | 2000000
CC1(CF)CCN(c2ccc3nccc(C(=O)NCC(=O)N4CSC[C@H]4C#N)c3c2)CC1 [Example 37] | hFAP (M39-A757) (Homo sapiens (Human)) | hFAP Binding assay k(on) | M⁻¹ s⁻¹ | 1000000
N#C[C@@H]1CSCN1C(=O)CNC(=O)c1ccnc2ccc(N3C[C@@H]4CC[C@H]3C4)cc12 (mixture of isomers) [Example 210] | hFAP (M39-A757) (Homo sapiens (Human)) | hFAP Binding assay k(on) | M⁻¹ s⁻¹ | 3800000
C[C@@H]1COC[C@H](C)N1c1ccc2nccc(C(=O)NCC(=O)N3CSC[C@H]3C#N)c2c1 [Example 90] | hFAP (M39-A757) (Homo sapiens (Human)) | hFAP Binding assay k(on) | M⁻¹ s⁻¹ | 480000
Cn1cc(-c2ccc3nccc(C(=O)NCC(=O)N4CSC[C@H]4C#N)c3c2)cn1 [Example 129] | hFAP (M39-A757) (Homo sapiens (Human)) | hFAP Binding assay k(on) | M⁻¹ s⁻¹ | 1400000
N#C[C@@H]1CSCN1C(=O)CNC(=O)c1ccnc2ccc(N3CC(C(F)F)C3)cc12 [Example 28] | hFAP (M39-A757) (Homo sapiens (Human)) | hFAP Binding assay k(on) | M⁻¹ s⁻¹ | 1100000
COC[C@H]1[C@H](C)OCCN1c1ccc2nccc(C(=O)NCC(=O)N3CSC[C@H]3C#N)c2c1 [Example 96] | hFAP (M39-A757) (Homo sapiens (Human)) | hFAP Binding assay k(on) | M⁻¹ s⁻¹ | 4000000
